Below, each entry is listed with its recorded IC50, BRE-luciferase reporter in C2C12 cells.
experimental-system: T1, BMP-9 (UniProt Q9UK05 320-429)
T1 sequence (looked up): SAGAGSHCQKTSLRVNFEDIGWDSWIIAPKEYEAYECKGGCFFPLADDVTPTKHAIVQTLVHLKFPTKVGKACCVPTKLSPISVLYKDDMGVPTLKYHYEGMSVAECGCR
protocol-description: cell-based or functional assay
# output: numeric value plus its unit

input: Bench note: what IC50, BRE-luciferase reporter in C2C12 cells did ActRIIB-B1B7 (SEQ ID NO: 116) chimera-Fc protein (Fc fusion, Tested as chimera-Fc protein; not shown: linker (if any) and Fc domain) GRGEAETRECLFFNANWELERTNQSGLERCEGEQDKRLHCYASWRNSSGTIELVKKGCWLDDFNCYDRQECVATEENPQVYFCCCEGNFCNEKFSYFPEAGGPEVTYEPPPTAPT show?
output: 0.067 µg/mL

input: Bench note: what IC50, BRE-luciferase reporter in C2C12 cells did ActRIIB-A2 (SEQ ID NO: 121) chimera-Fc protein (Fc fusion, Tested as chimera-Fc protein; not shown: linker (if any) and Fc domain) GRGEAETRECIYYNANWEKDRTNQSGLERCEGEQDKRLHCYASWRNSSGTIELVKKGCWLDDFNCYDRQECVATEENPQVYFCCCEGNFCNERFTHLPEAGGPEVTYEPPPTAPT show?
output: 0.082 µg/mL

Data credit: patent US20250270287A1
